Biological target: T1, Trop-2 on Trop-2 expressing cells (A431) (UniProt P09758 27-323, limits assumed)
T1 construct: whole, on cells; also called tumor-associated calcium signal transducer 2
T1 sequence (looked up): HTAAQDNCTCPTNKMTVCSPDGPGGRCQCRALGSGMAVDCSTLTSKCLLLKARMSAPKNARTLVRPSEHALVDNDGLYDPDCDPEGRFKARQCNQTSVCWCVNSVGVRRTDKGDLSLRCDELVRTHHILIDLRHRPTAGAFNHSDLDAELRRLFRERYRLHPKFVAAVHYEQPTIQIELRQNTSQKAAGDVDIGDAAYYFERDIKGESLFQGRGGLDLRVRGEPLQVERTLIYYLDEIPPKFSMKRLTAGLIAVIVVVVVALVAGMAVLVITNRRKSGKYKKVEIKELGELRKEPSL
Assay: flow cytometry on A431 cells, procedure of the PSMA cell assay; grade legend paragraph 462: 0 nM < A <= 100 nM
Bridge positions count the residues as written; N and C are the ends. Square brackets hold non-standard residues; d marks the D form. Bip = N[C@@H](Cc1ccc(-c2ccccc2)cc1)C(=O)O; NMeF = CN[C@@H](Cc1ccccc1)C(=O)O
measure name: EC50

Query: Which EC50 is reported for this binder? [dA]D[Bip]IYPA[Bip]SSES[NMeF]C-NH2 (bridge N-14; not fully specified (N-terminus, bridges), The cell assay followed the procedure with biotinylated compounds) [P-40]
Reply: ≤ 100 nM
